Biological target: Dipeptidyl peptidase 4 (Homo sapiens)
Sequence (P27487 whole entry): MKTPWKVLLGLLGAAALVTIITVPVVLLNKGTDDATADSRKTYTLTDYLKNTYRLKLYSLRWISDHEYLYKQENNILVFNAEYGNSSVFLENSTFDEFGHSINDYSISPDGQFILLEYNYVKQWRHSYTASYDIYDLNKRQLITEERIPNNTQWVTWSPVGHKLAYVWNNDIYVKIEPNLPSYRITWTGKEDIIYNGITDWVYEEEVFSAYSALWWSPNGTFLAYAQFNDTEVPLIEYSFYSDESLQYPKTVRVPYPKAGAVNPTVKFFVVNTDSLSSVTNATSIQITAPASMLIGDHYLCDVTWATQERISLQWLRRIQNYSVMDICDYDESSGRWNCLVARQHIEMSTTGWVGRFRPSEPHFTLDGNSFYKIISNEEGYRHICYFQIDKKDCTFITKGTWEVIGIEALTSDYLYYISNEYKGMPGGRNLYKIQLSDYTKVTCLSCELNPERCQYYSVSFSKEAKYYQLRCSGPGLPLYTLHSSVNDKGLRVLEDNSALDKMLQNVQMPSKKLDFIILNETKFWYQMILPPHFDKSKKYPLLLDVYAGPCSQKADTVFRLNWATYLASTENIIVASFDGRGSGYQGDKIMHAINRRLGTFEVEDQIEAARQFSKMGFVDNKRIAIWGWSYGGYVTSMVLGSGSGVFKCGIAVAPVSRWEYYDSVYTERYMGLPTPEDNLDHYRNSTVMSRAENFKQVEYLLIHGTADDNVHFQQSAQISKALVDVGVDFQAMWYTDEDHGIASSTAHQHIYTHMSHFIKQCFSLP
Assay: Conversion of prodrug to parent drug NAP-TSAO-T catalyzed by CD26 after 1 hr
Assay type: ADME
Parameters: concentration or dose not given beside the values
REPORTED_ENDPOINT: Activity (%)

>>> observed_measurement("Cc1cn(C2OC(CO[Si](C)(C)C(C)(C)C)C3(OS(=O)(=O)C=C3N)C2O[Si](C)(C)C(C)(C)C)c(=O)n(CCCNC(=O)[C@@H]2CCCN2C(=O)[C@@H](N)Cc2ccc(O)cc2)c1=O (stereo partly specified)")
43
>>> observed_measurement("Cc1cn(C2OC(CO[Si](C)(C)C(C)(C)C)C3(OS(=O)(=O)C=C3N)C2O[Si](C)(C)C(C)(C)C)c(=O)n(CCCNC(=O)[C@@H]2CCCN2C(=O)CN)c1=O (stereo partly specified)")
5
>>> observed_measurement("Cc1cn(C2OC(CO[Si](C)(C)C(C)(C)C)C3(OS(=O)(=O)C=C3N)C2O[Si](C)(C)C(C)(C)C)c(=O)n(CCCNC(=O)[C@@H]2[C@@H](O)[C@@H](O)CN2C(=O)[C@@H](N)C(C)C)c1=O (stereo partly specified)")
0
>>> observed_measurement("Cc1cn(C2OC(CO[Si](C)(C)C(C)(C)C)C3(OS(=O)(=O)C=C3N)C2O[Si](C)(C)C(C)(C)C)c(=O)n(CCCNC(=O)[C@H](Cc2ccccc2)NC(=O)[C@@H](N)C(C)C)c1=O (stereo partly specified)")
0
>>> observed_measurement("Cc1cn(C2OC(CO[Si](C)(C)C(C)(C)C)C3(OS(=O)(=O)C=C3N)C2O[Si](C)(C)C(C)(C)C)c(=O)n(CCCNC(=O)[C@@H]2CCCN2C(=O)[C@@H](N)C(C)C)c1=O (stereo partly specified)")
37
>>> observed_measurement("Cc1cn(C2OC(CO[Si](C)(C)C(C)(C)C)C3(OS(=O)(=O)C=C3N)C2O[Si](C)(C)C(C)(C)C)c(=O)n(CCCNC(=O)[C@H](CC(C)C)NC(=O)[C@@H](N)C(C)C)c1=O (stereo partly specified)")
0
>>> observed_measurement("Cc1cn(C2OC(CO[Si](C)(C)C(C)(C)C)C3(OS(=O)(=O)C=C3N)C2O[Si](C)(C)C(C)(C)C)c(=O)n(CCCNC(=O)[C@@H]2C[C@@H](O)CN2C(=O)[C@@H](N)C(C)C)c1=O (stereo partly specified)")
4.1
>>> observed_measurement("Cc1cn(C2OC(CO[Si](C)(C)C(C)(C)C)C3(OS(=O)(=O)C=C3N)C2O[Si](C)(C)C(C)(C)C)c(=O)n(CCCNC(=O)[C@@H]2CCCN2C(=O)[C@@H](NC(=O)OCc2ccccc2)C(C)C)c1=O (stereo partly specified)")
0
>>> observed_measurement("Cc1cn(C2OC(CO[Si](C)(C)C(C)(C)C)C3(OS(=O)(=O)C=C3N)C2O[Si](C)(C)C(C)(C)C)c(=O)n(CCCNC(=O)CNC(=O)[C@@H](N)C(C)C)c1=O (stereo partly specified)")
0
>>> observed_measurement("Cc1cn(C2OC(CO[Si](C)(C)C(C)(C)C)C3(OS(=O)(=O)C=C3N)C2O[Si](C)(C)C(C)(C)C)c(=O)n(CCCNC(=O)[C@H]2CCCN2C(=O)[C@@H](N)C(C)C)c1=O (stereo partly specified)")
0
>>> observed_measurement("Cc1cn(C2OC(CO[Si](C)(C)C(C)(C)C)C3(OS(=O)(=O)C=C3N)C2O[Si](C)(C)C(C)(C)C)c(=O)n(CCCNC(=O)[C@H](C)NC(=O)[C@@H](N)C(C)C)c1=O (stereo partly specified)")
0

----------
Target: Dipeptidyl peptidase 4 (Homo sapiens)
Experiment: Conversion of prodrug to parent drug NAP-TSAO-T catalyzed by CD26 after 4 hrs
Type: ADME
Parameters: concentration or dose not given beside the values
REPORTED_ENDPOINT: Activity (%)

>>> observed_measurement("Cc1cn(C2OC(CO[Si](C)(C)C(C)(C)C)C3(OS(=O)(=O)C=C3N)C2O[Si](C)(C)C(C)(C)C)c(=O)n(CCCNC(=O)[C@@H]2C[C@@H](OCc3ccccc3)CN2C(=O)[C@@H](N)C(C)C)c1=O (stereo partly drawn)")
0
>>> observed_measurement("Cc1cn(C2OC(CO[Si](C)(C)C(C)(C)C)C3(OS(=O)(=O)C=C3N)C2O[Si](C)(C)C(C)(C)C)c(=O)n(CCCNC(=O)[C@H](CC(C)C)NC(=O)[C@@H](N)C(C)C)c1=O (stereo partly drawn)")
0
>>> observed_measurement("Cc1cn(C2OC(CO[Si](C)(C)C(C)(C)C)C3(OS(=O)(=O)C=C3N)C2O[Si](C)(C)C(C)(C)C)c(=O)n(CCCNC(=O)[C@H](C)NC(=O)[C@@H](N)C(C)C)c1=O (stereo partly drawn)")
6.5

----------
System: MT4
Assay: Antiviral activity against HIV1 assessed as inhibition of HIV1-induced cytopathicity in MT4 cells
Format: functional, cell-based
Conditions: Homo sapiens
pEC50: −log10 of the molar value.
REPORTED_ENDPOINT: pEC50

>>> observed_measurement("Cc1cn(C2OC(CO[Si](C)(C)C(C)(C)C)C3(OS(=O)(=O)C=C3N)C2O[Si](C)(C)C(C)(C)C)c(=O)n(CCCNC(=O)[C@@H]2CCCN2C(=O)CN)c1=O (stereo not given in full)")
6.41
>>> observed_measurement("Cc1cn(C2OC(CO[Si](C)(C)C(C)(C)C)C3(OS(=O)(=O)C=C3N)C2O[Si](C)(C)C(C)(C)C)c(=O)n(CCCNC(=O)[C@@H]2CCCN2C(=O)[C@@H](N)CC(=O)O)c1=O (stereo not given in full)")
5.92
>>> observed_measurement("Cc1cn([C@@H]2O[C@H](CO[Si](C)(C)C(C)(C)C)[C@@]3(OS(=O)(=O)C=C3N)[C@H]2O[Si](C)(C)C(C)(C)C)c(=O)n(CCCN)c1=O")
6.28
>>> observed_measurement("Cc1cn(C2OC(CO[Si](C)(C)C(C)(C)C)C3(OS(=O)(=O)C=C3N)C2O[Si](C)(C)C(C)(C)C)c(=O)n(CCCNC(=O)[C@H](Cc2ccccc2)NC(=O)[C@@H](N)C(C)C)c1=O (stereo not given in full)")
6.59
>>> observed_measurement("Cc1cn(C2OC(CO[Si](C)(C)C(C)(C)C)C3(OS(=O)(=O)C=C3N)C2O[Si](C)(C)C(C)(C)C)c(=O)n(CCCNC(=O)[C@@H]2[C@@H](O)[C@@H](O)CN2C(=O)[C@@H](N)C(C)C)c1=O (stereo not given in full)")
6.11

----------
List of CC50 values.
Test system: MT4
Test: Antiproliferative activity against human MT4 cell line
Type: functional
REPORTED_ENDPOINT: CC50 (µM)

>>> observed_measurement("Cc1cn(C2OC(CO[Si](C)(C)C(C)(C)C)C3(OS(=O)(=O)C=C3N)C2O[Si](C)(C)C(C)(C)C)c(=O)n(CCCNC(=O)[C@@H]2CCCN2C(=O)[C@@H](N)CCCCN)c1=O (some centres undefined)")
87
>>> observed_measurement("Cc1cn(C2OC(CO[Si](C)(C)C(C)(C)C)C3(OS(=O)(=O)C=C3N)C2O[Si](C)(C)C(C)(C)C)c(=O)n(CCCNC(=O)[C@H](CC(C)C)NC(=O)[C@@H](N)C(C)C)c1=O (some centres undefined)")
13
>>> observed_measurement("Cc1cn(C2OC(CO[Si](C)(C)C(C)(C)C)C3(OS(=O)(=O)C=C3N)C2O[Si](C)(C)C(C)(C)C)c(=O)n(CCCNC(=O)CNC(=O)[C@@H](N)C(C)C)c1=O (some centres undefined)")
9.9
>>> observed_measurement("Cc1cn(C2OC(CO[Si](C)(C)C(C)(C)C)C3(OS(=O)(=O)C=C3N)C2O[Si](C)(C)C(C)(C)C)c(=O)n(CCCNC(=O)[C@H]2CCCN2C(=O)[C@@H](N)C(C)C)c1=O (some centres undefined)")
22
>>> observed_measurement("Cc1cn(C2OC(CO[Si](C)(C)C(C)(C)C)C3(OS(=O)(=O)C=C3N)C2O[Si](C)(C)C(C)(C)C)c(=O)n(CCCNC(=O)[C@H](C)NC(=O)[C@@H](N)C(C)C)c1=O (some centres undefined)")
22
>>> observed_measurement("Cc1cn(C2OC(CO[Si](C)(C)C(C)(C)C)C3(OS(=O)(=O)C=C3N)C2O[Si](C)(C)C(C)(C)C)c(=O)n(CCCNC(=O)[C@@H](NC(=O)[C@@H]2CCCN2C(=O)[C@@H](N)C(C)C)C(C)C)c1=O (some centres undefined)")
11
>>> observed_measurement("Cc1cn(C2OC(CO[Si](C)(C)C(C)(C)C)C3(OS(=O)(=O)C=C3N)C2O[Si](C)(C)C(C)(C)C)c(=O)n(CCCNC(=O)[C@@H]2CCCN2C(=O)CN)c1=O (some centres undefined)")
13
>>> observed_measurement("Cc1cn(C2OC(CO[Si](C)(C)C(C)(C)C)C3(OS(=O)(=O)C=C3N)C2O[Si](C)(C)C(C)(C)C)c(=O)n(CCCNC(=O)[C@@H]2CCCN2C(=O)[C@@H](N)CCC(=O)O)c1=O (some centres undefined)")
64
>>> observed_measurement("Cc1cn(C2OC(CO[Si](C)(C)C(C)(C)C)C3(OS(=O)(=O)C=C3N)C2O[Si](C)(C)C(C)(C)C)c(=O)n(CCCNC(=O)[C@@H]2CCCN2C(=O)[C@@H](N)CC(N)=O)c1=O (some centres undefined)")
22
>>> observed_measurement("Cc1cn(C2OC(CO[Si](C)(C)C(C)(C)C)C3(OS(=O)(=O)C=C3N)C2O[Si](C)(C)C(C)(C)C)c(=O)n(CCCNC(=O)[C@H](Cc2ccccc2)NC(=O)[C@@H](N)C(C)C)c1=O (some centres undefined)")
14
>>> observed_measurement("Cc1cn(C2OC(CO[Si](C)(C)C(C)(C)C)C3(OS(=O)(=O)C=C3N)C2O[Si](C)(C)C(C)(C)C)c(=O)n(CCCNC(=O)[C@@H]2CCCN2C(=O)[C@@H](N)CC(=O)O)c1=O (some centres undefined)")
69
>>> observed_measurement("Cc1cn(C2OC(CO[Si](C)(C)C(C)(C)C)C3(OS(=O)(=O)C=C3N)C2O[Si](C)(C)C(C)(C)C)c(=O)n(CCCNC(=O)[C@@H]2C[C@@H](OCc3ccccc3)CN2C(=O)[C@@H](N)C(C)C)c1=O (some centres undefined)")
2
>>> observed_measurement("Cc1cn([C@@H]2O[C@H](CO[Si](C)(C)C(C)(C)C)[C@@]3(OS(=O)(=O)C=C3N)[C@H]2O[Si](C)(C)C(C)(C)C)c(=O)n(CCCN)c1=O")
14
>>> observed_measurement("Cc1cn(C2OC(CO[Si](C)(C)C(C)(C)C)C3(OS(=O)(=O)C=C3N)C2O[Si](C)(C)C(C)(C)C)c(=O)n(CCCNC(=O)[C@@H](N)C(C)C)c1=O (some centres undefined)")
8.2
